Cited source: ChEMBL document CHEMBL3603744

experiment: Volume of distribution at steady state in C57BL/6 mouse at 2 mg/kg, iv or 5 mg/kg, po; type: ADME, organism-based; settings: in vivo, read-out: Vdss
experimental-endpoint: Vd (L/kg)
Give bare numbers, in L/kg.

Problem: Identify measured Vd corresponding to Cl.O=C1COc2ccc(CNC34CCC(CCc5c(F)cnc6ccc(OCCCO)nc56)(CC3)OC4)nc2N1
Solution: 1.46

====

tested on: Staphylococcus aureus; test: Antimicrobial activity against Staphylococcus aureus Smith by micro broth dilution or agar based method; assay type: functional
experimental-endpoint: MIC (µg/mL)
Numbers only, in µg/mL.

Problem: Using the record for O=C1COc2ccc(CNC34CCC(CCc5c(F)cnc6ccc(OC[C@H]7C[C@@H](O)[C@@H](O)C7)nc56)(CC3)OC4)nc2N1 , state its measured MIC.
Solution: 0.063

Problem: Output measured MIC for this item: N#CCCCOc1ccc2ncc(F)c(CCC34CCC(NCc5ccc6c(n5)NC(=O)CO6)(CC3)CO4)c2n1
Solution: 0.031

Problem: Name the recorded MIC of the item N[C@@H]1CO[C@H]1COc1ccc2ncc(F)c(CCC34CCC(NCc5ccc6c(n5)NC(=O)CO6)(CC3)CO4)c2n1 in your answer.
Solution: 0.25

Query molecule follows.
Problem: Tell me its MIC given O=C1COc2ccc(CNC34CCC(CCc5c(F)cnc6ccc(OC(F)F)nc56)(CC3)OC4)nc2N1 as the entry.
Solution: 0.016

====

system: Escherichia coli; experiment: Antimicrobial activity against Escherichia coli ATCC 25922 by micro broth dilution or agar based method; type: functional
experimental-endpoint: MIC (µg/mL)
Give bare numbers, in µg/mL.

Problem: Annotate the compound N[C@@H]1CO[C@H]1COc1ccc2ncc(F)c(CCC34CCC(NCc5ccc6c(n5)NC(=O)CO6)(CC3)CO4)c2n1 with its measured MIC.
Solution: 4

Go through the list and state MIC for each entry.
1. COCCOc1ccc2ncc(F)c(CCC34CCC(NCc5ccc6c(n5)NC(=O)CO6)(CC3)CO4)c2n1
2. O=C1COc2ccc(CNC34CCC(CCc5c(F)cnc6ccc(OC7CC(O)CC(O)C7)nc56)(CC3)OC4)nc2N1 (centres undefined)
3. NC(=O)C(F)(F)CCOc1ccc2ncc(F)c(CCC34CCC(NCc5ccc6c(n5)NC(=O)CO6)(CC3)CO4)c2n1

Solution:
8
64
8

====

system: Staphylococcus aureus; assay: Antimicrobial activity against Staphylococcus aureus Smith by micro broth dilution or agar based method; assay type: functional
experimental-endpoint: MIC (mg/L)
One number for each entry, in mg/L.

Reference set (6 entries):
Problem: Supply measured MIC of COc1ccc2ncc(F)c(C[C@H](O)C34CCC(NCc5ccc6c(n5)NC(=O)CO6)(CC3)CO4)c2n1 in your reply.
Solution: 0.02

Problem: Quickly give me recorded MIC for N[C@H]1CO[C@H]1COc1ccc2ncc(F)c(CCC34CCC(NCc5ccc6c(n5)NC(=O)CO6)(CC3)CO4)c2n1
Solution: 0.063

Problem: Determine its reported MIC: NC1(COc2ccc3ncc(F)c(CCC45CCC(NCc6ccc7c(n6)NC(=O)CO7)(CC4)CO5)c3n2)CC1
Solution: 0.25

Problem: Supply recorded MIC for O=C1COc2ccc(CNC34CCC(CCc5c(F)cnc6ccc(OCC(O)CO)nc56)(CC3)OC4)nc2N1 (configuration not stated) here.
Solution: 0.125

Problem: Supply recorded MIC for CCOC(=O)COc1ccc2ncc(F)c(CCC34CCC(NCc5ccc6c(n5)NC(=O)CO6)(CC3)CO4)c2n1 here.
Solution: 0.25

Problem: Consider the compound CN(C)C(=O)COc1ccc2ncc(F)c(CCC34CCC(NCc5ccc6c(n5)NC(=O)CO6)(CC3)CO4)c2n1 and give its recorded MIC.
Solution: 1

Answer for every listed entry: what is its MIC? The entries follow.
1. O=C1COc2ccc(CNC34CCC(CCc5c(F)cnc6ccc(OC7CCC7)nc56)(CC3)OC4)nc2N1
2. O=C1COc2ccc(CNC34CCC(CCc5c(F)cnc6ccc(OCC(CO)CO)nc56)(CC3)OC4)nc2N1
3. CCOC(=O)CCCOc1ccc2ncc(F)c(CCC34CCC(NCc5ccc6c(n5)NC(=O)CO6)(CC3)CO4)c2n1
4. COCCOc1ccc2ncc(F)c(CCC34CCC(NCc5ccc6c(n5)NC(=O)CO6)(CC3)CO4)c2n1
5. O=C1COc2ccc(CNC34CCC(CCc5c(F)cnc6ccc(OCC(F)(F)F)nc56)(CC3)OC4)nc2N1

Solution:
1. 0.125
2. 0.125
3. 0.031
4. 0.063
5. 0.063

List reported MIC for each of these compounds:
1. N[C@H]1CO[C@@H]1COc1ccc2ncc(F)c(CCC34CCC(NCc5ccc6c(n5)NC(=O)CO6)(CC3)CO4)c2n1
2. N[C@@H]1C(=O)NC[C@H]1Oc1ccc2ncc(F)c(CCC34CCC(NCc5ccc6c(n5)NC(=O)CO6)(CC3)CO4)c2n1
3. NCCCOc1ccc2ncc(F)c(CCC34CCC(NCc5ccc6c(n5)NC(=O)CO6)(CC3)CO4)c2n1
4. O=C1COc2ccc(CNC34CCC(CCc5c(F)cnc6ccc(OCCO)nc56)(CC3)OC4)nc2N1
5. N[C@@H]1COC[C@H]1Oc1ccc2ncc(F)c(CCC34CCC(NCc5ccc6c(n5)NC(=O)CO6)(CC3)CO4)c2n1
6. O=C1COc2ccc(CNC34CCC(CCc5c(F)cnc6ccc(OC[C@H]7C[C@H]7C(=O)O)nc56)(CC3)OC4)nc2N1 (relative stereo)
7. NC(=O)C(F)(F)CCOc1ccc2ncc(F)c(CCC34CCC(NCc5ccc6c(n5)NC(=O)CO6)(CC3)CO4)c2n1
8. NCCCCOc1ccc2ncc(F)c(CCC34CCC(NCc5ccc6c(n5)NC(=O)CO6)(CC3)CO4)c2n1

Solution:
1: 0.125; 2: 16; 3: 0.25; 4: 0.031; 5: 0.125; 6: 0.125; 7: 0.063; 8: 0.5

The following compounds each have a reported value; give each one's MIC.
1. CNC(=O)COc1ccc2ncc(F)c(CCC34CCC(NCc5ccc6c(n5)NC(=O)CO6)(CC3)CO4)c2n1
2. O=C1COc2ccc(CNC34CCC(CCc5c(F)cnc6ccc(OCc7cc(=O)c(O)c[nH]7)nc56)(CC3)OC4)nc2N1
3. CC(C)Oc1ccc2ncc(F)c(CCC34CCC(NCc5ccc6c(n5)NC(=O)CO6)(CC3)CO4)c2n1
4. O=C1COc2ccc(CNC34CCC(CCc5c(F)cnc6ccc(OCC7(C(=O)O)CC7)nc56)(CC3)OC4)nc2N1
5. CCOC(=O)C(F)(F)CCOc1ccc2ncc(F)c(CCC34CCC(NCc5ccc6c(n5)NC(=O)CO6)(CC3)CO4)c2n1
6. COC(=O)C1(COc2ccc3ncc(F)c(CCC45CCC(NCc6ccc7c(n6)NC(=O)CO7)(CC4)CO5)c3n2)CC1
7. O=C1COc2ccc(CNC34CCC(CCc5c(F)cnc6ccc(OCCCO)nc56)(CC3)OC4)nc2N1
8. NCCOc1ccc2ncc(F)c(CCC34CCC(NCc5ccc6c(n5)NC(=O)CO6)(CC3)CO4)c2n1

Solution:
0.125
8
0.25
0.5
1
0.125
0.016
0.25

Give one value of MIC per listed compound.
1. O=C1COc2ccc(CNC34CCC(CCc5c(F)cnc6ccc(OC[C@@H]7C[C@@H](O)[C@@H](O)C7)nc56)(CC3)OC4)nc2N1
2. O=C1COc2ccc(CNC34CCC(CCc5c(F)cnc6ccc(OCCc7cc(=O)c(O)c[nH]7)nc56)(CC3)OC4)nc2N1
3. NCC(O)COc1ccc2ncc(F)c(CCC34CCC(NCc5ccc6c(n5)NC(=O)CO6)(CC3)CO4)c2n1 (configuration not stated)
4. O=C1COc2ccc(CNC34CCC(CCc5c(F)cnc6ccc(OCCC(F)(F)C(=O)O)nc56)(CC3)OC4)nc2N1
5. COC(=O)CCCCOc1ccc2ncc(F)c(CCC34CCC(NCc5ccc6c(n5)NC(=O)CO6)(CC3)CO4)c2n1

Solution:
1: 0.125; 2: 16; 3: 2; 4: 16; 5: 0.063

====

assay: Plasma clearance in C57BL/6 mouse at 2 mg/kg, iv or 5 mg/kg, po; format: ADME, organism-based
experimental-endpoint: clearance
Number plus unit, in that order.

Problem: For Cl.O=C1COc2ccc(CNC34CCC(CCc5c(F)cnc6ccc(OCCCO)nc56)(CC3)OC4)nc2N1 , write its clearance.
Solution: 38.7 mL/min/kg

====

system: Staphylococcus aureus; experiment: Antimicrobial activity against Staphylococcus aureus Smith by micro broth dilution or agar based method; type: functional
Could you please mark criterion met for values of MIC below 0.1 µg/mL and criterion not met for values at or above it?

Problem: # TODO verify MIC < 0.1 µg/mL strictly for this molecule: CCOc1ccc2ncc(F)c(CCC34CCC(NCc5ccc6c(n5)NC(=O)CO6)(CC3)CO4)c2n1
Solution: criterion met

Problem: Field: below-cutoff. Rule: recorded MIC strictly less than 0.1 µg/mL. Subject: O=C1COc2ccc(CNC34CCC(CCc5c(F)cnc6ccc(OCC7(CO)CC7)nc56)(CC3)OC4)nc2N1
Solution: criterion met

Problem: Would you kindly verify if MIC of NCC1(COc2ccc3ncc(F)c(CCC45CCC(NCc6ccc7c(n6)NC(=O)CO7)(CC4)CO5)c3n2)CC1 is strictly less than 0.1 µg/mL?
Solution: criterion not met

Problem: Does the reported MIC of the following molecule sit strictly below 0.1 µg/mL? O=C1COc2ccc(CNC34CCC(CCc5c(F)cnc6ccc(OCC7(O)COC7)nc56)(CC3)OC4)nc2N1
Solution: criterion not met

Problem: Does this molecule meet the criterion MIC < 0.1 µg/mL? CC(C)COc1ccc2ncc(F)c(CCC34CCC(NCc5ccc6c(n5)NC(=O)CO6)(CC3)CO4)c2n1
Solution: criterion met

Problem: hey, is MIC for O=C1COc2ccc(CNC34CCC(CCc5c(F)cnc6ccc(OCCOCCO)nc56)(CC3)OC4)nc2N1 lower than 0.1 µg/mL or not?
Solution: criterion not met

Problem: MIC strictly < 0.1 µg/mL for this molecule? O=C1COc2ccc(CNC34CCC(CCc5c(F)cnc6ccc(OC7CC(O)CC(O)C7)nc56)(CC3)OC4)nc2N1 (stereo not drawn)
Solution: criterion not met

Please look at the following molecule next.
Problem: Does this molecule meet the criterion MIC < 0.1 µg/mL? O=C(O)CCCOc1ccc2ncc(F)c(CCC34CCC(NCc5ccc6c(n5)NC(=O)CO6)(CC3)CO4)c2n1
Solution: criterion not met
